# system-tested: T1, soluble Homo sapiens CD131 comprising a C-terminal 6xHis tag (human, UniProt P32927 17-438)
# T1 construct: truncated after Ser438, C-terminal 6xHis; also called shCD131; shβc
# T1 sequence: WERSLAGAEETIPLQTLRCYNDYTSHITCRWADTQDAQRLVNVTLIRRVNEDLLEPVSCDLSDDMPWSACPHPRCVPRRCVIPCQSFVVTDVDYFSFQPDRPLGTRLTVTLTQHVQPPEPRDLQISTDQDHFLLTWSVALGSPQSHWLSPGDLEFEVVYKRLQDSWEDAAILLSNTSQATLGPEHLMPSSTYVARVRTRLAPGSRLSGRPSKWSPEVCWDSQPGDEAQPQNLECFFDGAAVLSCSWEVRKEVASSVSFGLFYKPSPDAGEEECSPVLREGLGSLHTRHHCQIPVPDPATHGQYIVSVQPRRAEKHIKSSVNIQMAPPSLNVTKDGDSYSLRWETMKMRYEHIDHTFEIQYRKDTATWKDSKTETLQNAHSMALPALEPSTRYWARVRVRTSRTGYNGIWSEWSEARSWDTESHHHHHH
# assay-explanation: SPR, Fab over captured shCD131
Parameter: koff. Scope: all listed entries.
measured-attribute: koff (s⁻¹)

binder | units-symbol | test-result
9A2-VR24.122 Fab (Fab, V domains shown, recombinant Fab) VH: EVQLLESGGGLVQPGGSLRLSCAASGFTFPWYRVHWVRQAPGKGLEWVSSIRSSGGFTYYNSEVKGRFTISRDNSKNTLYLQMNSLRAEDTAVYYCARFYDSFFDIWGQGTMVTVSS VL: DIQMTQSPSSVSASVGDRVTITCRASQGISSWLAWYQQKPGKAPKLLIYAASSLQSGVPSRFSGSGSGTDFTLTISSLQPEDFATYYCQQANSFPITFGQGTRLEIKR | s⁻¹ | 0.000897
9A2-VR39.02 Fab (Fab, V domains shown, recombinant Fab) VH: EVQLLESGGGLVQPGGSLRLSCAASGFTFYWYHMIWVRQAPGKGLEWVSSINGRGRVTYYADSVKGRFTISRDNSKNTLYLQMNSLRAEDTAVYYCARFYDSFFDIWGQGTMVTVSS VL: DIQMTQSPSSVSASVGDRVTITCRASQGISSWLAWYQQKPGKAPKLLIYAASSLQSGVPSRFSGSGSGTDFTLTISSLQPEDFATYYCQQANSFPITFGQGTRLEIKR | s⁻¹ | 0.000341
9A2-VR24.29 Fab (Fab, V domains shown, recombinant Fab; also called recombinant Fab fragment of 9A2-VR24.29) VH: EVQLLESGGGLVQPGGSLRLSCAASGFTFPWYRVHWVRQAPGKGLEWVSSIRSSGGFPYYNYKVKGRFTISRDNSKNTLYLQMNSLRAEDTAVYYCARFYDSFFDIWGQGTMVTVSS VL: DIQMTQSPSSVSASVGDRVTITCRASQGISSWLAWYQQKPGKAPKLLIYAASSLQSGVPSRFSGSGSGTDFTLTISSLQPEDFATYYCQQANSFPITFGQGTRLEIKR | s⁻¹ | 0.000418
9A2-VR24.56 Fab (Fab, V domains shown, recombinant Fab) VH: EVQLLESGGGLVQPGGSLRLSCAASGFTFPWYRVHWVRQAPGKGLEWVSSIRSSGGFTYYNPAVRGRFTISRDNSKNTLYLQMNSLRAEDTAVYYCARFYDSFFDIWGQGTMVTVSS VL: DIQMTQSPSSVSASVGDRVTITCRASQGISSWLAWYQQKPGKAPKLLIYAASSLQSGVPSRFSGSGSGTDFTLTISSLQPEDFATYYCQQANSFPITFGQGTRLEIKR | s⁻¹ | 0.000997
9A2-VR24.44 Fab (Fab, V domains shown, recombinant Fab) VH: EVQLLESGGGLVQPGGSLRLSCAASGFTFPWYRVHWVRQAPGKGLEWVSSIRSSGGFPYYHPSVKGRFTISRDNSKNTLYLQMNSLRAEDTAVYYCARFYDSFFDIWGQGTMVTVSS VL: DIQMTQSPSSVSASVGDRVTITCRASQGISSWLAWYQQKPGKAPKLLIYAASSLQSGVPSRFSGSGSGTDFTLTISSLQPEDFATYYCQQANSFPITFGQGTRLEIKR | s⁻¹ | 0.000488
